system: A549, Human lung carcinoma cells; assay: Cytotoxicity, A549; format: cell-based; conditions: Adenovirus type 1 line
property-measured: CC50

Recorded CC50 of CC1(O)C(O)C(CO)OC1n1ccc(N)nc1=O (stereo not shown) [mCyd] , please.
> 200 µM

###

tested on: HepG2 human hepatoma cell line; experiment: Cytotoxicity (cell proliferation) assay, HepG2; details: cells grown on collagen coated plates for 4 or 10 d
property-measured: CC50

Param item = CC1(O)C(O)C(CO)OC1n1ccc(N)nc1=O (stereo not shown) ; retrieve measured CC50.
> 200 µM

###

tested on: KB, human nasopharyngeal carcinoma; experiment: Cytotoxicity, KB; format: cell-based; conditions: Rhinovirus type 2 line; read-out: CC50
property-measured: CC50

Can you share its CC50? I mean this molecule: CC1(O)C(O)C(CO)OC1n1ccc(N)nc1=O (stereo not shown) [mCyd]
> 200 µM

###

system: REO-1; experiment: microbe, parasite or virus in culture; format: cell-based, double-stranded RNA Reovirus; conditions: Reovirus sp., read-out: REO
property-measured: EC50 (µM)
Report the value in µM with no unit label.

If you can, please state the reported EC50 value of CC1(O)C(O)C(CO)OC1n1ccc(N)nc1=O (stereo not shown) [mCyd] .
13

###

molecular target: UniProt P09884
Sequence (P09884 whole entry): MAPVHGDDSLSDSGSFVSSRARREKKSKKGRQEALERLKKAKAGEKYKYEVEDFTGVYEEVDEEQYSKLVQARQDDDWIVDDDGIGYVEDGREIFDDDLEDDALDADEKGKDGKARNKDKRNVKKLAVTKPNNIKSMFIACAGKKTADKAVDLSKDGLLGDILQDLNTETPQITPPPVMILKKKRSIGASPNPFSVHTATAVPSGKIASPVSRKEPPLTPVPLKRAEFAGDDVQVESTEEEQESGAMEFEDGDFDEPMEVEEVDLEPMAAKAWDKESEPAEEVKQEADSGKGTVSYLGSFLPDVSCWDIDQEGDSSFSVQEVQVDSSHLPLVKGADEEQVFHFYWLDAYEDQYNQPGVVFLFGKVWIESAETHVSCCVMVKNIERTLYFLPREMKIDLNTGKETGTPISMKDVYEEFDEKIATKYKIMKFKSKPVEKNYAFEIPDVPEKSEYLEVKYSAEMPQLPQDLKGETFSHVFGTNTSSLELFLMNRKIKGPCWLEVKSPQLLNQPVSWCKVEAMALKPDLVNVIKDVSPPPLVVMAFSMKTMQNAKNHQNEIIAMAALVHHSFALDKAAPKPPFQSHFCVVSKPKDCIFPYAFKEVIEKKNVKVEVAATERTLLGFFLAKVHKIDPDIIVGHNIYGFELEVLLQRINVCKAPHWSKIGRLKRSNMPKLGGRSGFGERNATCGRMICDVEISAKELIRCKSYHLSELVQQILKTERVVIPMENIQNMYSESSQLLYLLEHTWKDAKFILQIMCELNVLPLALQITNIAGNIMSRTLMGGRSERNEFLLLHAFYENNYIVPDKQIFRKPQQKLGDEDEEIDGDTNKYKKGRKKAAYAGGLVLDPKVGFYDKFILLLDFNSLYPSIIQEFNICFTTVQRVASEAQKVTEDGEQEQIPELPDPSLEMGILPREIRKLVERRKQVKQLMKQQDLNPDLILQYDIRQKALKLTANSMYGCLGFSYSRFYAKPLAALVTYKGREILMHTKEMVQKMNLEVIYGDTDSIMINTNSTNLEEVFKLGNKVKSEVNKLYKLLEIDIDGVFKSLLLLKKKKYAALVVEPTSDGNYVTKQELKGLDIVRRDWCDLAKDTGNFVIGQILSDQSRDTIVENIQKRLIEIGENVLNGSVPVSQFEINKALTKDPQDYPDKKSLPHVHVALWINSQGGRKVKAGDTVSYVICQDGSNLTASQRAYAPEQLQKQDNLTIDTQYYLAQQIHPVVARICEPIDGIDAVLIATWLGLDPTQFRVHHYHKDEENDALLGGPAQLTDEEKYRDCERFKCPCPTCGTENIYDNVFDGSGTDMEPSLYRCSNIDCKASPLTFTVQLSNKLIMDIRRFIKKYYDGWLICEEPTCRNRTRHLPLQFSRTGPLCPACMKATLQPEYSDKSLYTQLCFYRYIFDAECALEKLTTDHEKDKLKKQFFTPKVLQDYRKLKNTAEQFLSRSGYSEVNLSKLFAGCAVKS
Starred links: 1 amine or outer side, 2 acyl side, 3 side chain; linkers in the order of their positions; H or OH if unused. Positions of bridges follow the written chain, without caps; N, C: chain ends. Non-standard residues stand in square brackets, D forms with d. Residues, ends and D or L forms follow the SMILES beside them. Chains are numbered I, II in the order given. Actinocin(9to1) = Cc1c2oc3c(C)ccc(C(=O)[*:1])c3nc-2c(C(=O)[*:2])c(N)c1=O; NMeV = CN[C@H](C(=O)O)C(C)C; Sar = CNCC(=O)O
Reported IC50 values are given for each entry in this list.

1) Cc1c2oc3c(C)ccc(C(=O)N[C@@H]4C(=O)N[C@H](C(C)C)C(=O)N5CCC[C@H]5C(=O)N(C)CC(=O)N(C)[C@@H](C(C)C)C(=O)O[C@@H]4C)c3nc-2c(C(=O)N[C@@H]2C(=O)N[C@H](C(C)C)C(=O)N3CCC[C@H]3C(=O)N(C)CC(=O)N(C)[C@@H](C(C)C)C(=O)O[C@@H]2C)c(N)c1=O [Act. D, actinomycin D] (I: T[dV]P[Sar][NMeV] / II: T[dV]P[Sar][NMeV]; ester I:1-I:C, II:1-II:C; linker I:N-II:N via Actinocin(9to1))    5.8 µM

Could you now consider this next compound?
Given the entry `Nc1ccn([C@H]2CC[C@@H](COP(=O)(O)OP(=O)(O)OP(=O)(O)O)O2)c(=O)n1` , report its measured IC50.
78 µM

###

system: MT-4 human T-lymphocyte cells; settings: human
property-measured: CC50

Looking for the measured CC50 of CC1(O)C(O)C(CO)OC1n1ccc(N)nc1=O (stereo not shown) , can you help?
34 µM

###

assay: Stability in human plasma; settings: human, plasma
property-measured: half-life (h)
Respond with the bare value in h.

Consider the molecule CC(C)C(N)C(=O)OC1[C@@H](CO)O[C@@H](n2ccc(N)nc2=O)[C@@]1(C)O (stereo partly shown) and give its measured half-life.
1.81

###

tested on: DENV-2; experiment: microbe, parasite or virus in culture; assay type: cell-based; conditions: Dengue virus, DENV2, read-out: composite EC50 range
pEC50: −log10 of the molar value.
property-measured: pEC50

# query: pEC50 of entry CC1(O)C(O)C(CO)OC1n1ccc(N)nc1=O (stereo not shown)
4.02 to 4.23

###

test: in vitro; settings: hamster
property-measured: CC50

Suppose we examine the molecule CC1(O)C(O)C(CO)OC1n1ccc(N)nc1=O (stereo not shown) ; what CC50 value has been reported?
> 100 µM

###

# EC50 per entry
tested on: REO-1; assay: microbe, parasite or virus in culture; assay type: cell-based, double-stranded RNA Reovirus; conditions: read-out: REO
Quick note: give the figure in µM, leave out the unit.

A selection of reference data follows.
1) C[C@@]1(O)[C@H](O)[C@@H](CO)O[C@H]1n1cnc2c(Cl)nc(N)nc21 [Compound D, β-D-2′-C-methyl-6-chloro-guanosine]    0.4
2) C[C@@]1(O)[C@H](O)[C@@H](CO)O[C@H]1n1cnc2c(N)nc(N)nc21 [Compound B, β-D-2′-C-methyl-2-amino adenosine]    2

# get_value(readout='EC50', item= C[C@@]1(O)[C@H](O)[C@@H](CO)O[C@H]1n1cnc2c(NC3CC3)nc(N)nc21 [Compound K] )
9.5

// data source = patent US7625875B2
